For JAK2 (Homo sapiens, UniProt O60674), measured pIC50 is reported for the entries below.
pIC50: −log10 of the molar value.
measuredMetric: pIC50

Here is how some compounds turned out for pIC50.
[
  {
    "compound": "N#CC=C1CCN(n2cnc3cnc4[nH]ccc4c32)CC1",
    "pIC50": 7.79
  },
  {
    "compound": "N#CCC1CCN(n2c(CO)nc3cnc4[nH]ccc4c32)CC1",
    "pIC50": 8.84
  },
  {
    "compound": "N#CC1CCN(n2cnc3cnc4[nH]ccc4c32)CC1",
    "pIC50": 7.15
  },
  {
    "compound": "N#CCCN1CCN(n2cnc3cnc4[nH]ccc4c32)CC1",
    "pIC50": 8.28
  },
  {
    "compound": "CC1(CC#N)CCN(n2cnc3cnc4[nH]ccc4c32)CC1",
    "pIC50": 8.92
  }
]

1. C[C@@H](O)c1nc2cnc3[nH]ccc3c2n1N1C2CCC1CC(CC#N)C2 (some centres unmarked)
2. CCC1CN(CCC#N)CN1n1cnc2cnc3[nH]ccc3c21 (centres unmarked)
3. N#CCC1CCN(n2cnc3cnc4[nH]ccc4c32)CC1
Arrange items by their pIC50 values in increasing order. Submit the labels in the order that the ranking request calls for.
2, 1, 3

a. C[C@@H](O)c1nc2cnc3[nH]ccc3c2n1N1CCC(CC#N)CC1
b. C[C@@H](O)c1nc2cnc3[nH]ccc3c2n1N1CCC(C)(CC#N)CC1
Choose between a and b : whose measured pIC50 value is numerically larger? Which one? Tell me its label.
a

I. N#CCC1CC2CCC(C1)N2n1cnc2cnc3[nH]ccc3c21 (centres unmarked)
II. N#CCCC1CCN(n2cnc3cnc4[nH]ccc4c32)CC1
III. CC[C@@H]1C[C@@H](CC#N)CN1n1cnc2cnc3[nH]ccc3c21
IV. N#CCNC1CCN(n2cnc3cnc4[nH]ccc4c32)C1 (centres unmarked)
// ranking: key=pIC50, reverse=True Field: ranking. Enter the labels in the order requested.
II, I, III, IV

I. N#CC1CC12CCN(n1cnc3cnc4[nH]ccc4c31)CC2 (centres unmarked)
II. CC1CN(C(=O)CC#N)CN1n1cnc2cnc3[nH]ccc3c21 (centres unmarked)
Hello, I am sorting some records. Could you say if I or II has the smaller pIC50 value? Let me know the label of the one you choose.
II
(II: 7.55, I: 8.48)

###

Observed pIC50 for JAK1 (Homo sapiens, UniProt P23458), reported per entry below.
pIC50: −log10 of the molar value.
measuredMetric: pIC50

Answered cases to consult:
[
  {
    "molecule": "C[C@@H](O)c1nc2cnc3[nH]ccc3c2n1N1CCC(CC#N)CC1",
    "pIC50": 10.10
  },
  {
    "molecule": "C[C@@H](O)c1nc2cnc3[nH]ccc3c2n1N1CCCC(CC#N)CC1 (some centres unmarked)",
    "pIC50": 8.77
  },
  {
    "molecule": "CCC1CN(CCC#N)CN1n1cnc2cnc3[nH]ccc3c21 (centres unmarked)",
    "pIC50": 7.86
  }
]

A. C[C@@H](O)c1nc2cnc3[nH]ccc3c2n1N1C2CCC1CC(CC#N)C2 (some centres unmarked)
B. CC[C@@H]1C[C@H](C#N)CN1n1cnc2cnc3[nH]ccc3c21
Compare the recorded pIC50 of A and B ; state which is larger. Write the label of whichever entry you select.
A

a. N#CCNC1CCN(n2cnc3cnc4[nH]ccc4c32)C1 (centres unmarked)
b. CCc1nc2cnc3[nH]ccc3c2n1N1CCC(CC#N)CC1
c. N#CC1CCN(n2cnc3cnc4[nH]ccc4c32)CC1
d. N#CCC1CC2CCC(C1)N2n1cnc2cnc3[nH]ccc3c21 (centres unmarked)
# desc sort on pIC50 across 4 molecules Output the labels ranked as instructed.
b, d, c, a
